molecular target: Cathepsin G (cathepsin G human neutrophil) (Homo sapiens); construct: Cathepsin G (cathepsin G human neutrophil, Sigma-Aldrich); purchased Sigma-Aldrich; host or cells: human neutrophil; assay: IC50 determination, spectrophotometric protease assay; type: biochemical; conditions: alkyne probes; 15 min preincubation at 37°C; mean ± SD
Sequence (P08311 21-255): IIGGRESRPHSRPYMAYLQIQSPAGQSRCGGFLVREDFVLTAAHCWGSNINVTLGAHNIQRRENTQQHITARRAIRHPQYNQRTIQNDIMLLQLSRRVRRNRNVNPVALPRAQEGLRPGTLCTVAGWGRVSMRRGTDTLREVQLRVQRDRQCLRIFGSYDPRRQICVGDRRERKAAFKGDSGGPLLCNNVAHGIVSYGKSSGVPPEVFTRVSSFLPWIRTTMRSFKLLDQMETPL
quantity.kind: CatG IC50

[[record]]
compound = "C#CCCCOC(=O)NC(Cc1ccc(N)cc1)P(=O)(Oc1ccc(Cl)cc1)Oc1ccc(Cl)cc1 (stereo not shown) [18b]"
quantity_kind = "CatG IC50"
measured = "submicromolar"

[[record]]
compound = "C#CCCCOC(=O)NC(Cc1ccc(N)cc1)P(=O)(Oc1ccc(NC(C)=O)cc1)Oc1ccc(NC(C)=O)cc1 (stereo not shown) [17b]"
quantity_kind = "CatG IC50"
measured = "submicromolar"


---

target: Trypsin-3 (Homo sapiens); assay: Kinetic progress curves (kapp, K1, KI*, mechanism); format: biochemical; parameters: purchased R&D; settings: apparent second-order rate constant from progress curves; mean ± SD
Sequence (P35030 whole entry): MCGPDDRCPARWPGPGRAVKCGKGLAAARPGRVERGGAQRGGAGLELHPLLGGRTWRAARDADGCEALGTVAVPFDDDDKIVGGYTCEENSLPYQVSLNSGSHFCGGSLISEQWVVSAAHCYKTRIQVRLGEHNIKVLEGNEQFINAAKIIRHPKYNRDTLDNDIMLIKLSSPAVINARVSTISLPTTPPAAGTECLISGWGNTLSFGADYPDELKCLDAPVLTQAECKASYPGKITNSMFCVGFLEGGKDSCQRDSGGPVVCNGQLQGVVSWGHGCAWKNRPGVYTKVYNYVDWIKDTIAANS
quantity.kind: Trypsin-3 kapp

[[record]]
compound = "C#CCCCOC(=O)NC(CCCNC(=N)N)P(=O)(Oc1ccc(Cl)cc1)Oc1ccc(Cl)cc1 (stereo not drawn) [33b]"
quantity_kind = "Trypsin-3 kapp"
measured = "35 × 10^2 ± 40 M^−1 s^−1"

[[record]]
compound = "C#CCCCOC(=O)NC(C1CCN(C(=N)N)CC1)P(=O)(Oc1ccccc1)Oc1ccccc1 (stereo not drawn) [41b]"
quantity_kind = "Trypsin-3 kapp"
measured = "17 × 10^2 ± 142 M^−1 s^−1"

[[record]]
compound = "C[C@@H]1NC(=O)N[C@@H]1CCCCCC(=O)NCCOCCOCCOCCn1cc(CCCOC(=O)NC(CCCNC(=N)N)P(=O)(Oc2ccccc2)Oc2ccccc2)nn1 (stereo partly drawn) [45b]"
quantity_kind = "Trypsin-3 kapp"
measured = "17 × 10^2 ± 122 M^−1 s^−1"

[[record]]
compound = "C[C@@H]1NC(=O)N[C@@H]1CCCCCC(=O)NCCOCCOCCOCCn1cc(CCCOC(=O)NC(c2ccc(NC(=N)N)cc2)P(=O)(Oc2ccc(Cl)cc2)Oc2ccc(Cl)cc2)nn1 (stereo partly drawn) [57b]"
quantity_kind = "Trypsin-3 kapp"
measured = "13 × 10^2 ± 340 M^−1 s^−1"

[[record]]
compound = "CC(=O)Nc1ccc(OP(=O)(Oc2ccc(NC(C)=O)cc2)C(NC(=O)OCCCc2cn(CCOCCOCCOCCNC(=O)CCCCC[C@H]3NC(=O)N[C@H]3C)nn2)c2ccc(NC(=N)N)cc2)cc1 (stereo partly drawn) [56b]"
quantity_kind = "Trypsin-3 kapp"
measured = "334 ± 85 M⁻¹ s⁻¹"

[[record]]
compound = "C[C@@H]1NC(=O)N[C@@H]1CCCCCC(=O)NCCOCCOCCOCCn1cc(CCCOC(=O)NC(CCCNC(=N)N)P(=O)(Oc2ccc(Cl)cc2)Oc2ccc(Cl)cc2)nn1 (stereo partly drawn) [46b]"
quantity_kind = "Trypsin-3 kapp"
measured = "92 × 10^2 ± 349 M^−1 s^−1"


---

Target: Thrombin (recombinant thrombin) (Homo sapiens, UniProt P00734)
Construct: purchased R&D
Test: IC50 determination, spectrophotometric protease assay
Assay type: biochemical
Conditions: read-out: Thrombin IC50; biotin probes; 15 min preincubation at 37 °C; mean ± SD
Protocol: The IC50 values were determined using a spectrophotometric assay. All the experiments were conducted in duplicate. The readout consisted of evaluating the protease-mediated release of the chromophore para-nitroaniline (pNA) or fluorophore 7-amino-4-methyl coumarin (AMC) moieties from the respective substrates. Enzymatic activity was measured for 30 min at 37°C. All compounds were initially screened at three concentrations (10, 1, and .1 μM) to estimate the range of the IC50 value. […]
quantity.kind: IC50

[[record]]
compound = "O=C(CCCCC1SCC2NC(=O)NC21)NCCOCCOCCOCCn1cc(CCCOC(=O)NC(Cc2ccccc2)P(=O)(Oc2ccccc2)Oc2ccccc2)nn1 (stereo not shown)"
quantity_kind = "IC50"
measured = "> 10 µM"

